Record form. Attribute: IC50. Fill in for each entry.
molecular target: UniProt P37288; experiment: Vasopressin V1A receptor antagonist assay (AVP-evoked calcium, FLIPR, CHO-AVPR1a cells); format: cell-based; conditions: read-out: V1a IC50

O=C(N1Cc2cc(Cl)ccc2-c2c(C3CC4(C3)CN(c3cccnn3)C4)noc2C1)C(F)(F)F | < 100 nM

# per-item lookup of IC50; items listed below
1. COC(=O)N1Cc2cc(Cl)ccc2-n2c(C3CC4(C3)CN(c3ncccc3F)C4)nnc2C1C (stereo not shown)
2. COC(=O)N1Cc2cc(Cl)ccc2-n2c(C3CC4(C3)CN(c3ccncn3)C4)nnc2C1C (single isomer, unassigned) [Cpd 184B]
3. COC(=O)N1Cc2cc(Cl)ccc2-n2c(C3CC4(C3)CN(c3ccc(F)cn3)C4)nnc2C1C (single isomer, unassigned) [142A]

["< 100 nM", "> 1000 nM", "< 100 nM"]

---

test system: wild-type (WT) MDCK cells; assay: MDR1-MDCK effective efflux assay (Transwell, 10 μM, 1 hour), wild-type MDCK cells; format: in vitro ADME; conditions: MDCK
TEST_READOUT: WT ER

O=C(C1CC1)N1CC2(CC(c3nnc4n3-c3ccc(Cl)cc3CN(C(=O)C(F)(F)F)C4)C2)C1 | +
O=C(C(F)F)N1Cc2cc(Cl)ccc2-n2c(nnc2C2CC3(C2)CN(c2ccc(F)cn2)C3)C1 | ++++
CC1c2nnc(C3CC4(C3)CN(c3ncccn3)C4)n2-c2ccc(Cl)cc2CN1C(=O)OC(CF)CF (stereo not shown) | ++++
CC(=O)N1Cc2cc(Cl)ccc2-n2c(nnc2C2CC3(C2)CN(c2cnccn2)C3)C1 | +

---

system: MDR1 (P-glycoprotein); experiment: MDR1-MDCK effective efflux assay (Transwell, 10 μM, 1 hour), MDR1-MDCK cells; assay type: in vitro ADME; conditions: dog, MDCK-MDR1, pH 7.4, MDR1-MDCK cells, apical to basolateral (A>B), 10 μM, 1 hour; read-out: Papp AB MDR1
Record form. Attribute: Papp A→B at 1 h, 10 μM. Fill in for each entry.

Some solved cases for reference:
COC(=O)N1Cc2cc(Cl)ccc2-n2c(C3CC4(C3)CN(c3cnccn3)C4)nnc2C1C (stereo not drawn) | 7 to 10 ×10⁻⁶ cm/s
CCOC(=O)N1Cc2cc(Cl)ccc2-n2c(nnc2C2CC3(C2)CN(c2ccc(F)cn2)C3)C1 | > 20 ×10⁻⁶ cm/s

# per-item lookup of Papp A→B at 1 h, 10 μM; items listed below
1. CC(C)OC(=O)N1Cc2cc(Cl)ccc2-n2c(nnc2C2CC3(C2)CN(c2ncncc2F)C3)C1
2. COC(=O)N1Cc2cc(Cl)ccc2-n2c(nnc2C2CC3(C2)CN(c2cccc(C#N)n2)C3)C1
3. CC(CF)OC(=O)N1Cc2cc(Cl)ccc2-n2c(nnc2C2CC3(C2)CN(c2ccc(F)cn2)C3)C1 (stereo not drawn)
4. CC(C)C(=O)N1Cc2cc(Cl)ccc2-n2c(nnc2C2CC3(C2)CN(c2ccc(F)cn2)C3)C1
5. O=C(OC(CF)CF)N1Cc2cc(Cl)ccc2-n2c(nnc2C2CC3(C2)CN(c2ccc(F)cn2)C3)C1

1: > 20 ×10⁻⁶ cm/s; 2: < 7 ×10⁻⁶ cm/s; 3: > 20 ×10⁻⁶ cm/s; 4: < 7 ×10⁻⁶ cm/s; 5: 10 to 20 ×10⁻⁶ cm/s

# per-item lookup of Papp A→B at 1 h, 10 μM; items listed below
1. CC1c2nnc(C3CC4(C3)CN(c3ccc(F)cn3)C4)n2-c2ccc(Cl)cc2CN1C(=O)C1(F)CC1 (stereo not drawn)
2. CC1c2nnc(C3CC4(C3)CN(c3ncc(F)cn3)C4)n2-c2ccc(Cl)cc2CN1C(=O)OC1(C)CC1 (stereo not drawn)
3. CC(C)OC(=O)N1Cc2cc(Cl)ccc2-n2c(nnc2C2CC3(C2)CN(c2ccc(F)cn2)C3)C1
4. CCOC(=O)N1Cc2cc(Cl)ccc2-n2c(C3CC4(C3)CN(c3ccc(F)cn3)C4)nnc2C1C (stereo not drawn)
5. COC(=O)N1Cc2cc(Cl)ccc2-n2c(C3CC4(C3)CN(c3ncccc3F)C4)nnc2C1C (stereo not drawn)
6. CCC(=O)N1Cc2cc(Cl)ccc2-n2c(nnc2C2CC3(C2)CN(c2ccc(F)cn2)C3)C1

["> 20 ×10⁻⁶ cm/s", "> 20 ×10⁻⁶ cm/s", "> 20 ×10⁻⁶ cm/s", "> 20 ×10⁻⁶ cm/s", "> 20 ×10⁻⁶ cm/s", "< 7 ×10⁻⁶ cm/s"]

# per-item lookup of Papp A→B at 1 h, 10 μM; items listed below
1. FCCN1Cc2cc(Cl)ccc2-n2c(nnc2C2CC3(C2)CN(c2ccccn2)C3)C1
2. COC(=O)N1Cc2cc(Cl)ccc2-n2c(C3CC4(C3)CN(c3cccc(C)n3)C4)nnc2C1C (stereo not drawn)

1: 7 to 10 ×10⁻⁶ cm/s; 2: > 20 ×10⁻⁶ cm/s

---

Record form. Attribute: pIC50. Fill in for each entry.
molecular target: V1a receptors (Rattus norvegicus (Rat), UniProt P30560); experiment: Arginine-Vasopressin (AVP) induced phospho-Erk measurement in rat choroid plexus (RCP) cells; assay type: cell-based; conditions: second study, read-out: IC50, AVP induced pERK1/2 to total ERK1/2
Sequence (P30560 whole entry): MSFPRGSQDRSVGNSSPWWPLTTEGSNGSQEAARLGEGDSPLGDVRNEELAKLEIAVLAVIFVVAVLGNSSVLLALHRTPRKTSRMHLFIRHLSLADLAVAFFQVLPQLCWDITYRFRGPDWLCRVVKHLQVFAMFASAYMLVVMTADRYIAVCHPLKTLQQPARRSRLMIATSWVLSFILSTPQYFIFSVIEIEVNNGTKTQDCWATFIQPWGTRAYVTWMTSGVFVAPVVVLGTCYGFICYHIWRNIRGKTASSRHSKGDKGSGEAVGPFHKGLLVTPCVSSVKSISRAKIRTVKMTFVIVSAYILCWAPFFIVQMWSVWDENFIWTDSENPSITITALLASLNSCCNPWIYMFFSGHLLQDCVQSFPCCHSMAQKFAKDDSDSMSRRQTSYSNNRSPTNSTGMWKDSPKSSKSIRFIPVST
Give bare numbers, as −log10 of the molar value.

CN1Cc2cc(Cl)ccc2-n2c(nnc2[C@H]2CC[C@H](Oc3ccccn3)CC2)C1 [balovaptan, reference compound] | 7.25

Could you share which pIC50 value was measured for COC(=O)N1Cc2cc(Cl)ccc2-n2c(C3CC4(C3)CN(c3ccc(F)cn3)C4)nnc2C1C (single isomer, unassigned) [142A] ? 7.70

---

molecular target: human Arginine Vasopressin Receptor 1a (AVPR1a) (Homo sapiens (Human), UniProt P37288); experiment: Vasopressin V1A receptor antagonist assay (AVP-evoked calcium, FLIPR, CHO-AVPR1a cells); format: cell-based; settings: read-out: V1a IC50
Sequence (P37288 whole entry): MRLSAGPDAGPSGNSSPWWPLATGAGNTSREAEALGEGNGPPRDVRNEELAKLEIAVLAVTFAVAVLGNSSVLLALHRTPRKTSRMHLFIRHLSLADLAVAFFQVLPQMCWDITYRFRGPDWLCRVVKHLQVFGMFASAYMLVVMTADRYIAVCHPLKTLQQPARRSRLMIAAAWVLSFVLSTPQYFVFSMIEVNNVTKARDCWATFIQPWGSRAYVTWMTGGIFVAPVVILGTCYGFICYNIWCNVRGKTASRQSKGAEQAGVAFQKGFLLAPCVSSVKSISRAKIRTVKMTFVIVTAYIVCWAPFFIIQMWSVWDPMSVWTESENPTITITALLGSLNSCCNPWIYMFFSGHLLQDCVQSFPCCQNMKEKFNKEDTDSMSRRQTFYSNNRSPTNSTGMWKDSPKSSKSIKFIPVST
pIC50: −log10 of the molar value.
TEST_READOUT: pIC50

Some solved cases for reference:
CC1(N2Cc3cc(Cl)ccc3-n3c(nnc3C3CC4(C3)CN(c3nccc(C#N)n3)C4)C2)CC1 | > 7.00
FC(F)(F)Oc1cccnc1N1CC2(CC(c3nnc4n3-c3ccc(Cl)cc3CN(C3CC3)C4)C2)C1 | > 7.00
COC(=O)N1Cc2cc(Cl)ccc2-n2c(C3CC4(C3)CN(c3ncc(F)cn3)C4)nnc2C1C (stereo not shown) [compound 170] | > 7.00

Could you share which pIC50 value was measured for CC1c2nnc(C3CC4(C3)CN(c3ccc(F)cn3)C4)n2-c2ccc(Cl)cc2CN1C(=O)OC1CC1 (single isomer, unassigned) [Cpd 191B] ? < 6.00

---

tested on: MDR1 (P-glycoprotein); experiment: MDR1-MDCK effective efflux assay (Transwell, 10 μM, 1 hour), MDR1-MDCK cells; assay type: in vitro ADME; settings: dog, MDCK-MDR1, pH 7.4, Papp AB MDR1
Record form. Attribute: Papp A→B at 1 h, 10 μM. Fill in for each entry.

Some solved cases for reference:
O=C(C1CC1)N1CC2(CC(c3nnc4n3-c3ccc(Cl)cc3CN(C(=O)C3(F)CC3)C4)C2)C1 | < 7 ×10⁻⁶ cm/s
CCC(=O)N1Cc2cc(Cl)ccc2-n2c(nnc2C2CC3(C2)CN(c2ccccn2)C3)C1 | < 7 ×10⁻⁶ cm/s
O=C(N1Cc2cc(Cl)ccc2-n2c(nnc2C2CC3(C2)CN(c2cnccn2)C3)C1)C1(F)CC1 | 7 to 10 ×10⁻⁶ cm/s
CC(C)OC(=O)N1Cc2cc(Cl)ccc2-n2c(C3CC4(C3)CN(c3ccc(F)cn3)C4)nnc2C1C (stereo not shown) | > 20 ×10⁻⁶ cm/s
CC1c2nnc(C3CC4(C3)CN(c3ccc(F)cn3)C4)n2-c2ccc(Cl)cc2CN1C (stereo not shown) | > 20 ×10⁻⁶ cm/s
CC(C)OC(=O)N1Cc2cc(Cl)ccc2-n2c(nnc2C2CC3(C2)CN(C(=O)C2CC2)C3)C1 | < 7 ×10⁻⁶ cm/s

Kindly review the next compound as well.
What Papp A→B at 1 h, 10 μM appears in the records for this compound with MDR1 (P-glycoprotein)? CC(C)C(=O)N1Cc2cc(Cl)ccc2-n2c(nnc2C2CC3(C2)CN(c2ccccn2)C3)C1 < 7 ×10⁻⁶ cm/s

---

target: UniProt:P30559; assay: Oxytocin receptor antagonist assay (oxytocin-evoked calcium, FLIPR, CHEM-1-hOTR cells); format: cell-based; conditions: read-out: OT IC50
Sequence (P30559 whole entry): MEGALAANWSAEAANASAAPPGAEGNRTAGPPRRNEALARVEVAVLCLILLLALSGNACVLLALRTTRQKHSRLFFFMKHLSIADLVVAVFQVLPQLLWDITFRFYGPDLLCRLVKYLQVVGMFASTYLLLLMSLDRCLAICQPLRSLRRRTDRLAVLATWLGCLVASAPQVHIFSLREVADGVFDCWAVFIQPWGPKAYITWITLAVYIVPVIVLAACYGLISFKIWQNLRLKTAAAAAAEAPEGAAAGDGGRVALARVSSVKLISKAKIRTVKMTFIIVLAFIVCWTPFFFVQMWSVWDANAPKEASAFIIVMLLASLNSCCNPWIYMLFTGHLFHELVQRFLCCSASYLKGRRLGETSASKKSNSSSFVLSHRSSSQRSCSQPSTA
pIC50: −log10 of the molar value.
TEST_READOUT: pIC50

Some solved cases for reference:
CC1c2nnc(C3CC4(C3)CN(c3ccc(F)cn3)C4)n2-c2ccc(Cl)cc2CN1C(=O)C1(F)CC1 (single isomer, unassigned) [Cpd 174A] | 6.30 to 7.00
COC(=O)N1Cc2cc(Cl)ccc2-n2c(C3CC4(C3)CN(c3ncc(F)cn3)C4)nnc2C1C (single isomer, unassigned) [Cpd 170A] | < 6.00
COC(=O)N1Cc2cc(Cl)ccc2-n2c(C3CC4(C3)CN(c3ncncc3F)C4)nnc2C1C (stereo not shown) [compound 188] | 6.30 to 7.00

# per-item lookup of pIC50; items listed below
1. CN1Cc2cc(Cl)ccc2-n2c(nnc2C2CC3(C2)CN(c2ccccn2)C3)C1
2. CC1c2nnc(C3CC4(C3)CN(c3ccc(F)cn3)C4)n2-c2ccc(Cl)cc2CN1C(=O)OC(C)(C)CF (single isomer, unassigned) [Cpd 206B]
3. O=C(OC(CF)CF)N1Cc2cc(Cl)ccc2-n2c(nnc2C2CC3(C2)CN(c2ccc(F)cn2)C3)C1
4. CN1Cc2cc(Cl)ccc2-n2c(nnc2C2CC3(C2)CN(c2ncccc2F)C3)C1

["< 6.00", "< 6.00", "6.30 to 7.00", "< 6.00"]
